test system: C6 rat glioma cells; test: Screening and dose response assay (percent survival, 4 days, cresyl violet) on C6 glioma; assay type: cell-based; conditions: Table 1; listed as drawing 11; read-out: EC50 μM C6
Endpoint name: EC50 (µM)
Quick note: give the figure in µM, leave out the unit.

Incoming: Respond only with EC50 recorded for COc1cc2c(c(OC)c1)C(Cc1ccc(-c3ccccc3OC)cc1)NCC2 (single isomer, unassigned) [12a]
Outgoing: 5.4

====

system: C6 rat glioma cells; assay: Screening and dose response assay (percent survival, 4 days, cresyl violet) on C6 glioma; format: cell-based; conditions: Rattus norvegicus, Glioma cell, Table 1; read-out: EC50 μM C6
Where a name gives a salt, the structure may show the parent alone.
Endpoint name: EC50 (µM)
// units = µM; emit number, no label

Incoming: Report measured EC50; entry is COc1cc2c(c(OC)c1)C(Cc1ccc(-c3cnccc3OC)cc1)NCC2 (stereo not shown) [9b, dihydrochloride]
Outgoing: 0.08

====

System: C6 rat glioma cells
Experiment: Screening and dose response assay (percent survival, 4 days, cresyl violet) on C6 glioma
Type: cell-based
Conditions: text b70, rat C6 glioma cell lines; listed as (+) 13a; read-out: antiglioma activity on rat C6 glioma cell lines
Method: Screening and Dose Response Assays. […] A 20 μL aliquot of these initial solutions was added to 180 μl of 2% FCS BME to produce the test concentration. […] The cells were fixed with 4% paraformaldehyde, stained with 0.1% Cresylecth violet stain, and quantitated. […] Data Analysis. The cytotoxic character of each compound was reported as the percent survival, calculated as the average A560 for treated cells divided by A560 of untreated (100% control) cells, and expressed as a percentage. […]
Endpoint name: EC50 (nM)
// return numeric value only (unit: nM, not printed)

Incoming: Quickly give me recorded EC50 for COc1cc2c(c(OC)c1)C(Cc1ccc(-c3ccccc3OC)cc1)NCC2 (single isomer, unassigned) [13a]
Outgoing: 260
